Here we gather IC50 data for UniProt:P48736 reported by several publications.

{"Smiles Representation": "Cc1nc(NC(=O)CCCN[C@H](C(=O)O)c2ccccc2)sc1-c1ccc(Cl)c(S(C)(=O)=O)c1", "IC50": "> 1000 nM"}
{"Smiles Representation": "Cn1c(-c2ccccc2)c(/C=C2\\Oc3cccc(O)c3C2=O)c2cccnc21", "IC50": "8000 nM"}
{"Smiles Representation": "C[C@H](Nc1ncnc2[nH]cnc12)c1cc2c(F)cccc2c(CCN2CCOCC2)n1", "IC50": "> 10000 nM"}
{"Smiles Representation": "Cc1cccc2cc([C@@H](C)Nc3ncnc4[nH]cnc34)n(-c3ccccc3)c(=O)c12", "IC50": "< 10000 nM"}
{"Smiles Representation": "CC(=O)Nc1nc(C)c(-c2ccc(Cl)c(S(=O)(=O)NCCN[C@@H](CC(C)C)C(=O)O)c2)s1", "IC50": "> 1000 nM"}
{"Smiles Representation": "CC(=O)Nc1nc2cc(-c3nn(Cc4cc5cccc(C)c5c(=O)n4-c4ccccc4)c4ncnc(N)c34)ccc2s1", "IC50": "< 1000 nM"}
{"Smiles Representation": "CN(C)CCn1ccc2c(N3CCOCC3)nc(-c3ccc(NC(=O)NCCc4c[nH]c5ccccc45)cc3)nc21", "IC50": "2180 nM"}
{"Smiles Representation": "CN(C)CCn1ccc2c(N3CCOCC3)nc(-c3ccc(NC(=O)Nc4ccc(F)cc4)cc3)nc21", "IC50": "176 nM"}
{"Smiles Representation": "Cc1cccc2cc(Cn3nc(C(C)(C)O)c4c(N)ncnc43)n(-c3ccccc3)c(=O)c12", "IC50": "> 10000 nM"}
{"Smiles Representation": "C[C@H](NC(=O)c1nc(-c2ccccc2)cnc1N)c1cc2cccc(Cl)c2c(=O)n1-c1ccccc1", "IC50": "1000 to 10000 nM"}
{"Smiles Representation": "C[C@H](Nc1nc(N)ncc1C(F)(F)F)c1cc2cccc(Cl)c2c(CCN2CCOCC2)n1", "IC50": "< 10000 nM"}
{"Smiles Representation": "COc1ccc(-c2ccnc3c2c(/C=C2\\Oc4cccc(O)c4C2=O)cn3C)cc1S(=O)(=O)N1CCCC1", "IC50": "600 nM"}
{"Smiles Representation": "CCc1ccccc1-n1c(Cn2nc(-c3cc(O)cc(F)c3)c3c(N)ncnc32)cc2cccc(C)c2c1=O", "IC50": "< 100 nM"}
{"Smiles Representation": "Cn1cc(/C=C2\\Oc3cc(O)cc(O)c3C2=O)c2c(-c3cccnc3)ccnc21", "IC50": "38 nM"}
{"Smiles Representation": "C[C@H](NC(=O)c1c(N)ncc2cccnc12)c1cc2cccc(N3CCOCC3)c2c(=O)n1-c1ccccc1", "IC50": "100 to 1000 nM"}

###

Literature roundup of PIK3CG (human) data, read-out IC50.

{"Compound": "COCCC1CN(C(=O)c2ccc(-c3ccnc4c3c(/C=C3\\Oc5cccc(O)c5C3=O)cn4C)cc2)CCO1 (stereo not shown)", "Tested System": "PIK3CG (human)", "Rel": "=", "IC50 (µM)": 0.038}
{"Compound": "C[C@H](Nc1ncnc2[nH]cnc12)c1cc2cccc(Cl)c2c(OCC(=O)N2CCOCC2)n1", "Tested System": "PIK3CG (human)", "Rel": "<", "IC50 (µM)": 1}
{"Compound": "Cn1ncc2c(Nc3ccc(C(N)=O)cc3)nc(Nc3cccc(NC(=O)Nc4cccnc4)c3)nc21", "Tested System": "PIK3CG (human)", "Rel": "=", "IC50 (µM)": 2.01}
{"Compound": "Cc1ccccc1-n1c(Cn2nc(C#CC3CC3)c3c(N)ncnc32)cc2cccc(C)c2c1=O", "Tested System": "PIK3CG (human)", "Rel": "<", "IC50 (µM)": 1}
{"Compound": "CC[C@H](Nc1ncnc2ccc(C#N)cc12)c1cc2cccc(-c3cnc(C)nc3)c2c(=O)n1-c1ccccc1", "Tested System": "PIK3CG (human)", "Rel": "=", "IC50 (µM)": 0.654}
{"Compound": "C#CCN(C)C(=O)C1CCN(c2ccnc3c2c(/C=C2\\Oc4ccc(NC(=O)Nc5cccnc5)cc4C2=O)cn3C)CC1", "Tested System": "PIK3CG (human)", "Rel": "=", "IC50 (µM)": 1.14}

###

Hi, quick share: literature IC50 data for PIK3CG (human), several sources combined.
Observed Property: IC50

{"Smiles Representation": "COc1ccc(-c2cccc3cc([C@H](C)NC(=O)c4c(N)nn5cccnc45)n(-c4ccccc4)c(=O)c23)cn1", "Observed Property": "IC50", "Observed Result": "100 to 1000 nM"}
{"Smiles Representation": "C[C@H](Nc1ncnc2[nH]cnc12)c1cc2cccc(-c3cnn(C)c3)c2c(C(=O)N2CCOCC2)n1", "Observed Property": "IC50", "Observed Result": "< 10000 nM"}
{"Smiles Representation": "Cn1cc(/C=C2\\Oc3cccc(O)c3C2=O)c2c(-c3ccc(CO)nc3)ccnc21", "Observed Property": "IC50", "Observed Result": "132 nM"}
{"Smiles Representation": "Cc1cccc2cc(Cn3nc(I)c4c(N)ncnc43)n(-c3ccccc3Cl)c(=O)c12", "Observed Property": "IC50", "Observed Result": "< 1000 nM"}
{"Smiles Representation": "CC1(C)CN(C2CN(c3cnc4ccc(-c5ccc6oc(N)nc6c5)nc4n3)C2)CCN1", "Observed Property": "IC50", "Observed Result": "< 10000 nM"}
{"Smiles Representation": "Cc1cccc2cc(Cn3nc(I)c4c(N)ncnc43)n(C3CCC3)c(=O)c12", "Observed Property": "IC50", "Observed Result": "< 10000 nM"}
{"Smiles Representation": "C[C@H](Nc1ncnc2cccnc12)c1cc2cccc(Cl)c2c(C(=O)N2CCC(O)CC2)n1", "Observed Property": "IC50", "Observed Result": "< 10000 nM"}
{"Smiles Representation": "Cc1cccc2cc(Cn3nc(-c4cccc(O)c4)c4c(N)ncnc43)n(C(C)C)c(=O)c12", "Observed Property": "IC50", "Observed Result": "< 100 nM"}

###

Below: compounds with IC50 recorded for PIK3CG (human) in separate published works.
Observed Property: IC50 (nM)

{"Compound": "Cn1cc(/C=C2\\Oc3cccc(O)c3C2=O)c2c(N3CCOCC3)ccnc21", "Observed Property": "IC50", "Rel": "=", "Observed Result": 184}
{"Compound": "CC(C)n1nc(-c2cc3cccc(O)c3[nH]2)c2c(N)ncnc21", "Observed Property": "IC50", "Rel": "=", "Observed Result": 450}
{"Compound": "COc1cccc(-c2nc(Oc3ccc(OC)c(OC)c3)c3cnn(C)c3n2)c1", "Observed Property": "IC50", "Rel": "=", "Observed Result": 1290}
{"Compound": "Cn1cc(/C=C2\\Oc3cccc(O)c3C2=O)c2c(-c3ccc(Oc4ccccc4)cc3)ccnc21", "Observed Property": "IC50", "Rel": ">", "Observed Result": 10000}
{"Compound": "Cn1cc(/C=C2\\Oc3cccc(O)c3C2=O)c2c(-c3cccc(C(=O)Nc4ccc(F)cc4)c3)ccnc21", "Observed Property": "IC50", "Rel": "=", "Observed Result": 2700}
{"Compound": "CCC(Nc1ncnc2[nH]cnc12)c1cc2cccc(C)c2c(=O)n1C1CCC1 (stereo not shown)", "Observed Property": "IC50", "Rel": "<", "Observed Result": 1000}
{"Compound": "COC(Cn1ccc2c(N3CCOCC3)nc(-c3ccc(NC(=O)Nc4ccncc4)cc3)nc21)OC", "Observed Property": "IC50", "Rel": "=", "Observed Result": 170}
{"Compound": "C[C@H](Nc1ccc2c(c1)OCCn1cc(N3C(=O)N(C)C[C@H]3C(F)F)nc1-2)C(N)=O", "Observed Property": "IC50", "Rel": "=", "Observed Result": 402}
{"Compound": "C=CC(=O)N(C)Cc1cc2nc(-c3cccc(O)c3)nc(N3CCOCC3)c2s1", "Observed Property": "IC50", "Rel": ">", "Observed Result": 1000}
{"Compound": "C[C@H](NC(=O)c1nc(-c2cccc(S(=O)(=O)NC3CC3)c2)cnc1N)c1cc2cccc(Cl)c2c(=O)n1C", "Observed Property": "IC50", "Rel": "<", "Observed Result": 100}
{"Compound": "C[C@H](Nc1ncnc2[nH]cnc12)c1nc(CCN2CCOCC2)c2ccccc2c1F", "Observed Property": "IC50", "Rel": ">", "Observed Result": 10000}
{"Compound": "CCn1ccc2c(N3CCOCC3)nc(-c3ccc(NC(=O)Nc4ccc(C(=O)N5CCC(N6CCOCC6)CC5)cc4)cc3)nc21", "Observed Property": "IC50", "Rel": "=", "Observed Result": 64}
{"Compound": "C[C@H](Nc1ncnc2[nH]cnc12)c1cc2cccc(Cl)c2c(C(=O)N(C)C2CCOCC2)n1", "Observed Property": "IC50", "Rel": "<", "Observed Result": 10000}
{"Compound": "Cc1ccccc1-n1c(Cn2nc(-c3ccc(Cl)c(O)c3)c3c(N)ncnc32)cc2ccccc2c1=O", "Observed Property": "IC50", "Rel": "<", "Observed Result": 100}
{"Compound": "Cn1cc(/C=C2\\Oc3ccc(NC(=O)Nc4cccnc4)cc3C2=O)c2c(N3CCC(C(=O)Nc4cccnc4)CC3)ccnc21", "Observed Property": "IC50", "Rel": "=", "Observed Result": 10500}
